# Tested On: FXR ligand binding domain (LBD) (Homo sapiens)
# Construct: made in house
# Sequence (Q96RI1 262-486 limits assumed): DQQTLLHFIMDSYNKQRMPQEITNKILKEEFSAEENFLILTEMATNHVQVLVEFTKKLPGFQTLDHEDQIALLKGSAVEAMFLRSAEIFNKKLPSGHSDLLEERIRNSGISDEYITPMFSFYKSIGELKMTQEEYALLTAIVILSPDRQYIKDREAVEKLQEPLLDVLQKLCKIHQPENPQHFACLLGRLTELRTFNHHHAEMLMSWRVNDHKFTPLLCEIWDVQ
# Experimental Protocol: AlphaScreen assay: FXR LBD recruitment of coregulator peptide motifs (SRC2-3, SRC1-2)
# Assay type: biochemical
# Experimental Parameters: SRC2-3 peptide; Table 2; read-out: EC50 (μM) of FXR binding by AlphaScreen assay recruit SRC2-3
Quantity Name: EC50

Ask | Name the recorded EC50 of the item Cc1cc(C(=O)OC2CCC3CCCCC3C2)ccc1N (centres unmarked) in your answer.
Reply | < 1 µM

Ask | Name the recorded EC50 of the item Cc1cc(C(=O)OC2CCC3CCCCC3C2)ccc1F (centres unmarked) in your answer.
Reply | < 1 µM

Ask | Name the recorded EC50 of the item Cc1cc(C(=O)OC2CCCCCCC2)ccc1O [XD-17, cyclooctyl 4-hydroxy-3-methylbenzoate] in your answer.
Reply | < 1 µM

Ask | Name the recorded EC50 of the item COc1cc(C(=O)OC2CCC3CCCCC3C2)ccc1[N+](=O)[O-] (centres unmarked) in your answer.
Reply | 1 to 10 µM

Ask | Name the recorded EC50 of the item CC1(C)C2CCC1(C)C(OC(=O)C1CCC(O)CC1)C2 (centres unmarked) in your answer.
Reply | 1 to 10 µM
